Every entry's value here was drawn from patent US20020115723A1.

Examples of molecules with documented Inhibition ratio (%) of NF-κB activation follow.
Test system: NF-κB
PROTOCOL_DESCRIPTION: Test on the function of inhibiting the activation of NF-κB induced by ultraviolet rays (gel shift assay)
Assay type: cell-based, human
CONDITIONS_USED: addition concentration 0.1 mM; human epidermal cells, UVB 50 mJ/cm^2
# unit: % | format: bare number

Some solved cases for reference:
1. COC(=O)[C@H](CSSC[C@H](N)C(=O)O)NC(C)=O [N-acetyl-L-cystine methyl ester]	95
2. CCOC(=O)[C@@H](N)CSSC[C@H](N)C(=O)OCC [L-cystine diethyl ester]	50
3. CC(=O)N[C@@H](CSSC[C@H](N)C(=O)O)C(=O)OC(C)C [N-acetyl-L-cystine isopropylester]	82

So what's the measured Inhibition ratio (%) of NF-κB activation for this one? CCCCC(=O)N[C@@H](CSSC[C@H](NC(=O)CCCC)C(=O)OC)C(=O)OC 64
